Source: ChEMBL document CHEMBL1156251

System: Escherichia coli
Experiment: Antimicrobial activity against Escherichia coli at 10 ug/mL
Assay type: functional
Where a SMILES comes first, the peptide text is derived from it. Bridges are numbered along the chain shown (N, C = ends). [ ]: non-standard residue; d: D form. The star is where a group is joined. Octanoyl = CCCCCCCC(=O)*; Dab = NCC[C@H](N)C(=O)O; Abu = CC[C@H](N)C(=O)O
Recorded endpoint: GI (square millimeter)
Reply with just the number (in square millimeter).

1. CCCCCCCC(=O)N[C@H](C(=O)N[C@@H](CC)C(=O)N[C@H]1CCNC(=O)[C@H](CC(C)C)NC(=O)[C@H](CCN)NC(=O)[C@H](CCN)NC(=O)[C@H](CC(C)C)NC(=O)[C@@H](Cc2ccccc2)NC(=O)[C@H](CCN)NC1=O)[C@@H](C)O (Octanoyl-T[Abu][Dab][Dab][dF]L[Dab][Dab]L; lactam 3-C) :: 50
2. CCCCCCCC(=O)N[C@H](C(=O)N[C@H](CO)C(=O)N[C@H]1CCNC(=O)[C@H]([C@@H](C)O)NC(=O)[C@H](CCN)NC(=O)[C@H](CCN)NC(=O)[C@H]([C@H](C)O)NC(=O)[C@@H](Cc2ccccc2)NC(=O)[C@H](CCN)NC1=O)[C@@H](C)O :: 172
3. CCCCCCCC(=O)N[C@H](C(=O)N[C@@H](CC)C(=O)N[C@H]1CCNC(=O)[C@H]([C@@H](C)O)NC(=O)[C@H](CCN)NC(=O)[C@H](CCN)NC(=O)[C@H](CC(C)C)NC(=O)[C@H](CC(C)C)NC(=O)[C@H](CCN)NC1=O)[C@@H](C)O (Octanoyl-T[Abu][Dab][Dab]LL[Dab][Dab]T; lactam 3-C) :: 0
4. CCCCCCCC(=O)N[C@H](C(=O)N[C@@H](CCN)C(=O)N[C@H]1CCNC(=O)[C@H]([C@@H](C)O)NC(=O)[C@H](CCN)NC(=O)[C@H](CC)NC(=O)[C@H](CC(C)C)NC(=O)[C@@H](Cc2ccccc2)NC(=O)[C@H](CCN)NC1=O)[C@@H](C)O :: 60
5. CCCCCCC(=O)N[C@H](C(=O)N[C@H](CO)C(=O)N[C@H]1CCNC(=O)[C@H]([C@@H](C)O)NC(=O)[C@H](CCN)NC(=O)[C@H](CCN)NC(=O)[C@H](CC(C)C)NC(=O)[C@@H](Cc2ccccc2)NC(=O)[C@H](CCN)NC1=O)[C@@H](C)O :: 80

Prompt: Item `CCCCCCCCCC(=O)N[C@H](C(=O)N[C@H](CO)C(=O)N[C@H]1CCNC(=O)[C@H]([C@@H](C)O)NC(=O)[C@H](CCN)NC(=O)[C@H](CCN)NC(=O)[C@H](CC(C)C)NC(=O)[C@@H](Cc2ccccc2)NC(=O)[C@H](CCN)NC1=O)[C@@H](C)O` has what recorded GI?
Response: 130

Prompt: Name the reported GI value associated with the compound `CCCCCCCC(=O)N[C@H](C(=O)N[C@@H](CCC(N)=O)C(=O)N[C@H]1CCNC(=O)[C@H]([C@@H](C)O)NC(=O)[C@H](CCN)NC(=O)[C@H](CCN)NC(=O)[C@H](CC(C)C)NC(=O)[C@@H](Cc2ccccc2)NC(=O)[C@H](CCN)NC1=O)[C@@H](C)O`
Response: 10
